Entry source: ChEMBL document CHEMBL3877279

test: Selectivity index, ratio of IC50 for equine serum BuChE to IC50 for Electric eel AChE
Please respond with reported Ratio IC50 for every item in the list.
A bare number is all that is needed in reply.

Looking up COc1cc2c(cc1OC)C(=O)/C(=C/c1ccc(N3CCN(c4ccc(Cl)cc4)CC3)cc1)C2 , I found its Ratio IC50 recorded as 7.6

Reported Ratio IC50 of COc1cc2c(cc1OC)C(=O)/C(=C/c1ccc(N3CCN(c4ccccn4)CC3)cc1)C2 : 16.5

Ratio IC50 reported for this compound COc1cc2c(cc1OC)C(=O)/C(=C/c1ccc(N3CCN(C(c4ccc(F)cc4)c4ccc(F)cc4)CC3)cc1)C2 : 67

COc1cc2c(cc1OC)C(=O)/C(=C/c1ccc(N3CCN(c4ccc(C)cc4C)CC3)cc1)C2 yielded Ratio IC50 of 45.8

The compound identified as COc1cc2c(cc1OC)C(=O)/C(=C/c1ccc(N3CCN(Cc4ccc5c(c4)OCO5)CC3)cc1)C2 registered its Ratio IC50 at 6.5

Lookup result for COc1cc2c(cc1OC)C(=O)/C(=C/c1ccc(N3CCN(c4ncccn4)CC3)cc1)C2 ; measured Ratio IC50: 97.3

response.value for COc1cc2c(cc1OC)C(=O)/C(=C/c1ccc(N3CCN(C(=O)c4ccccc4)CC3)cc1)C2 (field: Ratio IC50) = 0.2

Entry COc1ccc(N2CCN(c3ccc(/C=C4\Cc5cc(OC)c(OC)cc5C4=O)cc3)CC2)cc1 ; Ratio IC50 = 5.06

Sure, the documented Ratio IC50 for COc1cc2c(cc1OC)C(=O)/C(=C/c1ccc(N3CCN(Cc4ccccc4)CC3)cc1)C2 is 0.03

====

experiment: Antioxidant activity assessed as trolox equivalent of AAPH radical scavenging activity at 1 to 25 uM preincubated for 15 mins followed by AAPH addition measured every min for 80 mins by ORAC-FL assay; type: functional
assay endpoint: Activity (umolequiv/umol)
The response must contain the number and no unit.

Lab note: measured Activity (umolequiv/umol) of COc1cc2c(cc1OC)C(=O)/C(=C/c1ccc(N3CCN(c4ccc(C(F)(F)F)cc4)CC3)cc1)C2 was 1.72

Documented Activity (umolequiv/umol) of COc1cc2c(cc1OC)C(=O)/C(=C/c1ccc(N3CCN(c4ncccn4)CC3)cc1)C2 : 2.34

Record COc1cc2c(cc1OC)C(=O)/C(=C/c1ccc(N3CCN(C(=O)c4ccccc4)CC3)cc1)C2 , field Activity (umolequiv/umol): 2.31

Entry COc1cc2c(cc1OC)C(=O)/C(=C/c1ccc(N3CCN(c4ccc(C)cc4C)CC3)cc1)C2 , Activity (umolequiv/umol) reported as 1.35

Briefly, Activity (umolequiv/umol) measured for COc1cc2c(cc1OC)C(=O)/C(=C/c1ccc(N3CCN(C(=O)c4ccoc4)CC3)cc1)C2 : 3.89

Looking up COc1cc2c(cc1OC)C(=O)/C(=C/c1ccc(N3CCN(c4ccc(Cl)cc4)CC3)cc1)C2 , I see its Activity (umolequiv/umol) listed as 1.87

====

experiment: Cytotoxicity against human SH-SY5Y cells assessed as cell viability at 1 uM after 48 hrs by MTT assay relative to control; assay type: toxicity, cell-based; conditions: read-out: Activity
Field: viability at 48 h, 1 µM. Provide a value for each of the molecules that follow.
Unit % implied. Number only.

Kindly note the recorded viability at 48 h, 1 µM for COc1cc2c(cc1OC)C(=O)/C(=C/c1ccc(N3CCN(c4ncccn4)CC3)cc1)C2 , which is 98.5

For this molecule ( COc1cc2c(cc1OC)C(=O)/C(=C/c1ccc(N3CCN(C(c4ccc(F)cc4)c4ccc(F)cc4)CC3)cc1)C2 ), measured viability at 48 h, 1 µM is 97.1

Documented viability at 48 h, 1 µM of COc1cc2c(cc1OC)C(=O)/C(=C/c1ccc(N3CCN(C(=O)c4ccoc4)CC3)cc1)C2 : 96
